# MEASURED_ON: T. cruzi oligopeptidase B (rPEP, recombinant 120-kD peptidase) (Trypanosoma cruzi)
# Sequence (Q94795 1-714): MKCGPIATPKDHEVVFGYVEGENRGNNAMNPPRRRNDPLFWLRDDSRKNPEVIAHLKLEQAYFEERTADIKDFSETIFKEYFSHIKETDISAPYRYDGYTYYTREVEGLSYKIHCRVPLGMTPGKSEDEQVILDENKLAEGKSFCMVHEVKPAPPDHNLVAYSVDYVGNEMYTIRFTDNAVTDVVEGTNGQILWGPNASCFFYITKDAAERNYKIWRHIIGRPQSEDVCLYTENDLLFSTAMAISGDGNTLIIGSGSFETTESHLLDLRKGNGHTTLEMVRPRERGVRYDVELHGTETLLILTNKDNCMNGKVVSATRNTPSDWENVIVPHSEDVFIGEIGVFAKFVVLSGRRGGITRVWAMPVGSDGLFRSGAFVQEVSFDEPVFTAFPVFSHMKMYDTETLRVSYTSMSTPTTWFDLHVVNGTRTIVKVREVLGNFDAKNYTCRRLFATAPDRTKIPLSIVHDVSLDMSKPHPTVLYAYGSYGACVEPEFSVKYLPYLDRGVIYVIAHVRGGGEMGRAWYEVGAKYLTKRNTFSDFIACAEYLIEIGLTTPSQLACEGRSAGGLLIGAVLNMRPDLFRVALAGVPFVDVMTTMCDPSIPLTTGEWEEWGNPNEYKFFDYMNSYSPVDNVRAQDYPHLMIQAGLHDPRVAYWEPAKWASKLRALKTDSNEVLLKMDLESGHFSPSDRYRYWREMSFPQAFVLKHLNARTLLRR
# METHOD_DESCRIPTION: fluorimetric inhibition of Z-Phe-Arg-AMC hydrolysis
Residues, ends and D or L forms follow the SMILES beside them. *: point of attachment. Cbz = O=C(OCc1ccccc1)*; CH2Cl = ClC*; CH2F = FC*
Listed molecules paired with reported IC50
OBSERVATION_TYPE: IC50 (nM)

> print(dat)
                                   molecule  result.unit  recorded.result
1                O=C(O)c1cc[c]([Hg][Cl])cc1           nM              330
2  Cc1ccc(S(=O)(=O)N[C@@H](CCCCN)C(=O)CCl)cc1           nM              600
3  N=C(N)NCCC[C@H](NC(=O)[C@H](Cc1ccccc1)NC(=O)OCc1ccccc1)C(=O)CF [Z-Phe-Arg-fluoromethylketone] (Cbz-Phe-Arg-CH2F)           nM              250
4  CC(=O)N[C@@H](CCCNC(=N)N)C(=O)N[C@@H](CCCNC(=N)N)C(=O)CCl [acetylArg-Arg-chloromethylketone] (Ac-Arg-Arg-CH2Cl)           nM              200
